- System: Enterococcus faecalis
- assay: Antibacterial activity against Enterococcus faecalis ATCC 29212 after 24 hrs by broth microdilution method
- Format: functional
- test-conditions: ATCC 29212, 24 h
readout-name: log10 of MIC (log10 of the value in µg/mL)
The common logarithm of MIC in µg/mL is what is listed.

{"compound": "O=C(OC(Cn1ccnc1)c1ccc2ccccc2c1)c1ccc(Cl)cc1 (stereo unspecified)", "log10 of MIC": 2.11}
{"compound": "CC(C)C(=O)OC(Cn1ccnc1)c1ccc2ccccc2c1 (stereo unspecified)", "log10 of MIC": 2.11}
{"compound": "CCCC(=O)OC(Cn1ccnc1)c1ccc2ccccc2c1 (stereo unspecified)", "log10 of MIC": 2.11}
{"compound": "CC(C)CC(=O)OC(Cn1ccnc1)c1ccc2ccccc2c1 (stereo unspecified)", "log10 of MIC": 1.81}
{"compound": "CC(C)(C)OC(=O)NCCCC(=O)OC(Cn1ccnc1)c1ccc2ccccc2c1 (stereo unspecified)", "log10 of MIC": 2.11}

Request: So what's the measured log10 of MIC for this one? Oc1c(C(O)Cn2ccnc2)ccc2ccccc12 (stereo unspecified)
Response: 2.41

Request: Try this compound next: CC1(C)S[C@@H]2[C@H](NC(=O)[C@H](N)c3ccccc3)C(=O)N2[C@H]1C(=O)O
Response: 0.30

Request: Same question for O=C(Cn1ccnc1)c1ccc2ccccc2c1O please.
Response: 1.81

Request: What do you get for CCCCC(=O)OC(Cn1ccnc1)c1ccc2ccccc2c1 (stereo unspecified) ?
Response: 1.51

Request: Another: O=C(OC(Cn1ccnc1)c1ccc2ccccc2c1)c1ccccc1 (stereo unspecified)
Response: 1.51

Request: Next: CCCC(CCC)C(=O)OC(Cn1ccnc1)c1ccc2ccccc2c1 (stereo unspecified)
Response: 1.20

----------
- Test system: Mus musculus
- assay: Anticonvulsant activity in CF1 mouse assessed as inhibition of maximal electroshock-induced seizures at 100 mg/kg, ip after 0.5 hrs
- Format: functional, organism-based
- Parameters: dose 100 mg/kg
Calls of active or inactive are those of the source. The calls are words filed in the database; no cut-off is given here.
Classes to choose from: active, inactive

Examples from the recorded data:
{"molecule": "C/C(=N\\CCCC(=O)O)c1ccc2ccccc2c1O", "group": "inactive"}
{"molecule": "O=C(OC(Cn1ccnc1)c1ccc2ccccc2c1)c1ccccc1 (centres undefined)", "group": "active"}
{"molecule": "O=C(Cn1ccnc1)c1ccc2ccccc2c1O", "group": "inactive"}
{"molecule": "CCCC(CCC)C(=O)OC(Cn1ccnc1)c1ccc2ccccc2c1 (centres undefined)", "group": "active"}
{"molecule": "CCCCC(=O)OC(C)c1ccc2ccccc2c1 (centres undefined)", "group": "inactive"}

Request: Check the results log: what was the call for CCCCC(=O)OC(Cn1ccnc1)c1ccc2ccccc2c1 (centres undefined) ?
Response: active

Request: Cool, now CC(C)(C)OC(=O)NCCCC(=O)OC(Cn1ccnc1)c1ccc2ccccc2c1 (centres undefined)
Response: active

Request: Try the molecule Oc1c(C(O)Cn2ccnc2)ccc2ccccc12 (centres undefined)
Response: inactive

Request: Input O=C(OC(Cn1ccnc1)c1ccc2ccccc2c1)c1ccc(Cl)cc1 (centres undefined)
Response: inactive

----------
- Tested on: Mus musculus
- assay: Anticonvulsant activity in CF1 mouse assessed as inhibition of maximal electroshock-induced seizures at 100 mg/kg, ip after 0.5 hrs
- Type: functional, organism-based
- Parameters: dose 100 mg/kg
Active and inactive are the calls of the source. The calls are words filed in the database; no cut-off is given here.
Could you please pick one outcome from this set? class 1 for active, class 0 for inactive

Request: Field: outcome | Entry: CC(C)CC(=O)OC(C)c1ccc2ccccc2c1 (stereo unspecified)
Response: class 0

Request: Consider next the compound CCCC(CCC)C(=O)OC(C)c1ccc2ccccc2c1 (stereo unspecified) in the same way.
Response: class 0

Request: Also, CC(C)CC(=O)OC(Cn1ccnc1)c1ccc2ccccc2c1 (stereo unspecified) please.
Response: class 1

Request: Next compound up: CCCC(=O)OC(Cn1ccnc1)c1ccc2ccccc2c1 (stereo unspecified)
Response: class 1

Request: Next compound: CC(OC(=O)CCCNC(=O)OC(C)(C)C)c1ccc2ccccc2c1 (stereo unspecified)
Response: class 0

Request: What do you have for CC(C)C(=O)OC(Cn1ccnc1)c1ccc2ccccc2c1 (stereo unspecified) ?
Response: class 1

----------
- Test system: Mus musculus
- assay: Neurotoxicity in CF1 mouse at 30 mg/kg, ip after 0.5 hrs by rotarod test
- Assay type: toxicity, organism-based
- Design: dose 30 mg/kg, route intraperitoneal
- test-conditions: in vivo
readout-name: Activity

Below, each entry is followed by its recorded Activity result.
{"compound": "CC(OC(=O)CCCNC(=O)OC(C)(C)C)c1ccc2ccccc2c1 (centres undefined)", "Activity": "Non-toxic"}
{"compound": "CCCCC(=O)OC(Cn1ccnc1)c1ccc2ccccc2c1 (centres undefined)", "Activity": "Non-toxic"}
{"compound": "C/C(=N\\CCCC(=O)O)c1ccc2ccccc2c1O", "Activity": "Non-toxic"}
{"compound": "CCCC(CCC)C(=O)OC(C)c1ccc2ccccc2c1 (centres undefined)", "Activity": "Non-toxic"}
{"compound": "CC(C)CC(=O)OC(C)c1ccc2ccccc2c1 (centres undefined)", "Activity": "Non-toxic"}

Request: What does the record list as Activity for CCCC(CCC)C(=O)OC(Cn1ccnc1)c1ccc2ccccc2c1 (centres undefined) ?
Response: Non-toxic

Request: Also Oc1c(C(O)Cn2ccnc2)ccc2ccccc12 (centres undefined) , if possible.
Response: Non-toxic

Request: Now the same for CCCC(=O)OC(Cn1ccnc1)c1ccc2ccccc2c1 (centres undefined)
Response: Non-toxic

Request: Same again, this time with O=C(Cn1ccnc1)c1ccc2ccccc2c1O
Response: Non-toxic

Request: Please do the same for CC(C)(C)OC(=O)NCCCC(=O)OC(Cn1ccnc1)c1ccc2ccccc2c1 (centres undefined) as well.
Response: Non-toxic

----------
- Tested on: Mus musculus
- assay: Neurotoxicity in CF1 mouse at 300 mg/kg, ip after 0.5 hrs by rotarod test
- Assay type: toxicity, organism-based
- Parameters: dose 300 mg/kg, route intraperitoneal
- test-conditions: in vivo
readout-name: Activity

{"compound": "CCCCC(=O)OC(C)c1ccc2ccccc2c1 (stereo not given)", "assay-target": "Mus musculus", "Activity": "Non-toxic"}
{"compound": "CC(OC(=O)CCCNC(=O)OC(C)(C)C)c1ccc2ccccc2c1 (stereo not given)", "assay-target": "Mus musculus", "Activity": "Non-toxic"}
{"compound": "CC(C)CC(=O)OC(C)c1ccc2ccccc2c1 (stereo not given)", "assay-target": "Mus musculus", "Activity": "Non-toxic"}
{"compound": "C/C(=N\\CCCC(=O)O)c1ccc2ccccc2c1O", "assay-target": "Mus musculus", "Activity": "Toxic"}

Turning now to a further record.
Request: Give recorded Activity with Mus musculus for the following compound: CCCC(CCC)C(=O)OC(C)c1ccc2ccccc2c1 (stereo not given)
Response: Non-toxic

----------
Measured MIC values are reported for all entries that follow.
- Tested on: Escherichia coli
- assay: Antibacterial activity against Escherichia coli ATCC 25922 after 24 hrs by broth microdilution method
- Assay type: functional
- test-conditions: ATCC 25922, 24 h

{"compound": "CC(C)C(=O)OC(Cn1ccnc1)c1ccc2ccccc2c1 (stereo unspecified)", "MIC": "> 1020 µg/mL"}

Request: Form field: reported MIC of CC1(C)S[C@@H]2[C@H](NC(=O)[C@H](N)c3ccccc3)C(=O)N2[C@H]1C(=O)O [AMPICILLIN]
Response: 8 µg/mL

Request: // repeat for CC(C)(C)OC(=O)NCCCC(=O)OC(Cn1ccnc1)c1ccc2ccccc2c1 (stereo unspecified) and report
Response: > 1020 µg/mL

Request: Next up: O=C(Cn1ccnc1)c1ccc2ccccc2c1O
Response: 1020 µg/mL

Request: Now the compound CCCC(=O)OC(Cn1ccnc1)c1ccc2ccccc2c1 (stereo unspecified)
Response: > 1020 µg/mL

Request: Next record, please: O=C(OC(Cn1ccnc1)c1ccc2ccccc2c1)c1ccc(Cl)cc1 (stereo unspecified)
Response: 1020 µg/mL

Request: Try the compound Oc1c(C(O)Cn2ccnc2)ccc2ccccc12 (stereo unspecified)
Response: > 1020 µg/mL

Request: Next entry: CC(C)CC(=O)OC(Cn1ccnc1)c1ccc2ccccc2c1 (stereo unspecified)
Response: > 1020 µg/mL

Request: Note, next up: O=C(OC(Cn1ccnc1)c1ccc2ccccc2c1)c1ccccc1 (stereo unspecified)
Response: > 1020 µg/mL

Request: Let us now turn to CCCCC(=O)OC(Cn1ccnc1)c1ccc2ccccc2c1 (stereo unspecified)
Response: > 1020 µg/mL

Request: And then CCCC(CCC)C(=O)OC(Cn1ccnc1)c1ccc2ccccc2c1 (stereo unspecified) , what is it?
Response: > 1020 µg/mL

----------
- assay: Therapeutic index, ratio of TD50 for CF1 mouse to ED50 for CF1 mouse
readout-name: selectivity ratio

Request: Consider the compound CC(C)CC(=O)OC(Cn1ccnc1)c1ccc2ccccc2c1 (stereo unspecified) and give its measured selectivity ratio.
Response: 3.22

Taken from ChEMBL document CHEMBL1156239.
